// provenance: patent US5750536A

System: α1
Experiment: Displacement of selective ligand from α1 receptor
Type: binding
Settings: 10^-5 M; 10 µM
Observation type: Dispacement percentage α1 (%)
The response must be a number in % with no trailing unit.

{"Molecule": "Cc1nccn1CC1CCc2c(c3ccccc3n2C)C1=O (racemic) [Ondasetron, reference compound]", "Reported": 72}
{"Molecule": "CN1[C@@H]2CC[C@H]1C[C@@H](NC(=O)c1c[nH]c3ncccc13)C2", "Reported": 13}
{"Molecule": "COc1cc(N)c(Cl)cc1C(=O)N[C@H]1C[C@H]2CC[C@@H](C1)N2C [BRL 24682, reference compound]", "Reported": 28}

# input for lookup
I'd like to know its Dispacement percentage α1. The molecule in question is O=C(NC1CN2CCC1CC2)c1c[nH]c2ncccc12 (stereo not shown)
7

---

molecules and their reported sleeping time increase
Tested on: sleeping time induced by barbiturates
Experiment: Increase of sleeping time induced by barbiturates
Type: in vivo, mice
Details: mice, oral, single dose 100 mg/kg, barbiturate-induced sleep

{"Molecule": "CN1[C@@H]2CC[C@H]1C[C@@H](NC(=O)c1c[nH]c3ncccc13)C2", "Observation type": "sleeping time increase", "Reported": -28.9}
{"Molecule": "O=C(NC1CN2CCC1CC2)c1c[nH]c2ncccc12 (stereo not shown)", "Observation type": "sleeping time increase", "Reported": -7}
{"Molecule": "COc1cc(N)c(Cl)cc1C(=O)N[C@H]1C[C@H]2CC[C@@H](C1)N2C [BRL 24682, reference compound]", "Observation type": "sleeping time increase", "Reported": "+34.8"}

# input for lookup
I'd like to know its sleeping time increase. The molecule in question is COc1ccc2c3c1O[C@H]1[C@@H](O)C=C[C@H]4[C@@H](C2)N(C)CC[C@@]341 [Codeine, reference compound]
+106.4
